Attribution: ChEMBL document CHEMBL4414551

Experiment: Oral bioavailability n Sprague-Dawley rat at 20 mg/kg measured up to 24 hrs by LC-MS/MS analysis
Assay type: ADME, organism-based
Conditions: in vivo
OBSERVABLE: bioavailability (%)
Give just the numeric value; % need not be written.

In plain terms, CC(C)CCN1C(=O)[C@]2(CC(=O)Nc3c2nnn3[C@@H](C)c2ccc(Cl)cc2)c2cc(Cl)ccc21 has a documented bioavailability of 30

###

Measured EC50 by item
System: dengue virus type 3
Experiment: Antiviral activity against Dengue virus 3 D3MY05-34640 infected in human HuH7 replicon cells expressing Renilla luciferase and neomycin-resistance genes assessed as reduction in viral replication incubated for 48 hrs by luciferase reporter replicon-based assay
Type: functional, organism-based
Details: D3MY05-34640, Huh-7, 48 h
Give just the numeric value; nM need not be written.

In plain terms, COc1cc(CN2C(=O)[C@]3(CC(=O)Nc4c3nnn4[C@@H](C)c3ccc(Cl)cc3)c3cc(Cl)ccc32)cc(OC)c1 has a documented EC50 of 790

In plain terms, C[C@@H](c1ccc(Cl)cc1)n1nnc2c1NC(=O)C[C@]21C(=O)N(CC2CC2)c2ccc(Cl)cc21 has a documented EC50 of 17

In plain terms, C[C@@H](c1ccc(Cl)cc1)n1nnc2c1NC(=O)C[C@]21C(=O)N(CCCN2CCCCC2)c2ccc(Cl)cc21 has a documented EC50 of 12

In plain terms, C[C@@H](c1ccc(Cl)cc1)n1nnc2c1NC(=O)C[C@]21C(=O)Nc2ccc(Cl)cc21 has a documented EC50 of 10

In plain terms, COC(=O)CN1C(=O)[C@]2(CC(=O)Nc3c2nnn3[C@@H](C)c2ccc(Cl)cc2)c2cc(Cl)ccc21 has a documented EC50 of 11

In plain terms, CC(C)N1C(=O)[C@]2(CC(=O)N(C(C)C)c3c2nnn3[C@@H](C)c2ccc(Cl)cc2)c2cc(Cl)ccc21 has a documented EC50 of 1500

In plain terms, CCCCCCCCCCN1C(=O)[C@]2(CC(=O)Nc3c2nnn3[C@@H](C)c2ccc(Cl)cc2)c2cc(Cl)ccc21 has a documented EC50 of 1200
